Molecular target: T1, ActRIIB-Fc homodimer (UniProt Q13705 19-137)
T1 construct: extracellular domain; also called ActRIIB homodimer
T1 sequence (looked up): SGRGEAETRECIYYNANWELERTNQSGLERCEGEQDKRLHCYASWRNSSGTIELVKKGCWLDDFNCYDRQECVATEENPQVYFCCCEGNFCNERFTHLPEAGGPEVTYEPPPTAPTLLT
Experiment: Biacore SPR
quantity: kon (M⁻¹ s⁻¹)

INSERT INTO measurements (binder, resultnumber) VALUES
  ('GDF11 (ligand, UniProt O95390 299-407, looked up, also called BMP11) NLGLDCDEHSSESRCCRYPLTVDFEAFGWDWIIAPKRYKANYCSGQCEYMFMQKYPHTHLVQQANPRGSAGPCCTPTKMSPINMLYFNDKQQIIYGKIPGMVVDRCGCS', '5e+07');

A = activin A (ligand, UniProt P08476 311-426, looked up) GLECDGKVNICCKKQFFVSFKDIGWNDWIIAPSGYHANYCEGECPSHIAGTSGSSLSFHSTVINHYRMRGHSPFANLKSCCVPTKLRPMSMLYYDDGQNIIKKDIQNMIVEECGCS
B = BMP9 (ligand, UniProt Q9UK05 320-429, looked up, also called GDF2) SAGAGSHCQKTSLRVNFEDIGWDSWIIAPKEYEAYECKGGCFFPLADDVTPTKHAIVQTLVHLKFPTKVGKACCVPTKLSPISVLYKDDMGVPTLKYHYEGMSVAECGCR
C = activin B (ligand, UniProt P09529 293-407, looked up) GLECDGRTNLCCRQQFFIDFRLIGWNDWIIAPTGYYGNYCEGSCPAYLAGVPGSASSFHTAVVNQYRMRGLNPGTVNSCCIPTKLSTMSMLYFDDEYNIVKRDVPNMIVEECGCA
D = BMP10 (ligand, UniProt O95393 317-424, looked up) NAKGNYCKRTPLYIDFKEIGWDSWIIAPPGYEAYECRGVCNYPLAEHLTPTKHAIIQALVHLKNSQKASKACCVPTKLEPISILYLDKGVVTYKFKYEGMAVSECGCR
E = GDF3 (ligand, UniProt Q9NR23 251-364, looked up) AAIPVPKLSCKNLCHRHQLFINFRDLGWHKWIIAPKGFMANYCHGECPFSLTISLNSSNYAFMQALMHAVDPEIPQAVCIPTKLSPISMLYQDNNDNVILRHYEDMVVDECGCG
# ascending order, key=kon Answer format: list of labels, ordered as asked.
E, C, A, B, D
(E: 1.6e+06 M⁻¹ s⁻¹, C: 5.1e+06 M⁻¹ s⁻¹, A: 1.3e+07 M⁻¹ s⁻¹, B: 3.9e+07 M⁻¹ s⁻¹, D: 5.9e+07 M⁻¹ s⁻¹)
